- System: NCI-H2342
- PROTOCOL DETAILS: relative viability (nuclei count vs DMSO), 5 days (fraction); higher = more cells survive
- EXPERIMENTAL CONTEXT: first compound 2.53 µM
QUANTITY MEASURED: relative viability
Reply: number alone, nothing else.

(Q) Looking for the measured relative viability of O=c1[nH]c2ccccc2n1C1CCN(CCCC(c2ccc(F)cc2)c2ccc(F)cc2)CC1 [Pimozide] + Cc1cc(Nc2cc(N3CCN(C)CC3)nc(Sc3ccc(NC(=O)C4CC4)cc3)n2)n[nH]1 [Tozasertib] (partner 0.1 µM) , can you help?
(A) 0.488

(Q) Looking for the measured relative viability of O=c1[nH]c2ccccc2n1C1CCN(CCCC(c2ccc(F)cc2)c2ccc(F)cc2)CC1 [Pimozide] + CCNC(=O)c1noc(-c2cc(C(C)C)c(O)cc2O)c1-c1ccc(CN2CCOCC2)cc1 [Luminespib] (partner 0.01 µM) , can you help?
(A) 0.739

(Q) Looking for the measured relative viability of Cc1cnc(-c2cnc(NCCNc3ccc(C#N)cn3)nc2-c2ccc(Cl)cc2Cl)[nH]1 + O=C(CCCCCCC(=O)Nc1ccccc1)NO [Vorinostat] (partner 1 µM) , can you help?
(A) 0.648

(Q) Looking for the measured relative viability of O=c1[nH]c2ccccc2n1C1CCN(CCCC(c2ccc(F)cc2)c2ccc(F)cc2)CC1 [Pimozide] + CC(=O)Nc1cccc(-n2c(=O)n(C3CC3)c(=O)c3c(Nc4ccc(I)cc4F)n(C)c(=O)c(C)c32)c1 [Trametinib] (partner 0.02 µM) , can you help?
(A) 0.826

(Q) Looking for the measured relative viability of O=c1[nH]c2ccccc2n1C1CCN(CCCC(c2ccc(F)cc2)c2ccc(F)cc2)CC1 [Pimozide] + O=C(CCCCCCC(=O)Nc1ccccc1)NO [Vorinostat] (partner 1 µM) , can you help?
(A) 0.75

(Q) Looking for the measured relative viability of Cc1cnc(-c2cnc(NCCNc3ccc(C#N)cn3)nc2-c2ccc(Cl)cc2Cl)[nH]1 + NC(=O)Nc1cc(-c2cccc(F)c2)sc1C(=O)N[C@H]1CCCNC1 [AZD7762] (partner 0.2 µM) , can you help?
(A) 0.46

(Q) Looking for the measured relative viability of Cc1cnc(-c2cnc(NCCNc3ccc(C#N)cn3)nc2-c2ccc(Cl)cc2Cl)[nH]1 + COc1cccc2cc(-c3nc([C@H]4CC[C@H](C(=O)O)CC4)n4ncnc(N)c34)[nH]c12 [OSI-027] (partner 0.5 µM) , can you help?
(A) 0.53

(Q) Looking for the measured relative viability of Cc1cnc(-c2cnc(NCCNc3ccc(C#N)cn3)nc2-c2ccc(Cl)cc2Cl)[nH]1 + CC(=O)c1c(C)c2cnc(Nc3ccc(N4CCNCC4)cn3)nc2n(C2CCCC2)c1=O [Palbociclib] (partner 0.5 µM) , can you help?
(A) 0.463

(Q) Looking for the measured relative viability of O=c1[nH]c2ccccc2n1C1CCN(CCCC(c2ccc(F)cc2)c2ccc(F)cc2)CC1 [Pimozide] + COc1cccc2cc(-c3nc([C@H]4CC[C@H](C(=O)O)CC4)n4ncnc(N)c34)[nH]c12 [OSI-027] (partner 0.5 µM) , can you help?
(A) 0.543
